Entry source: ChEMBL document CHEMBL1134619

Assay: Volume distribution at steady state in rats was determined
Assay type: ADME, organism-based
Details: rat, in vivo; read-out: VSS
Here, each record is paired with measured Vd data.
# number only, unit L/kg dropped from output

Worked set:
[
  {
    "smiles_string": "CC1(C)[C@H](C(=O)N=C(N)N)[C@H]1c1cc(Cl)ccc1Cl",
    "unit_abbrev": "L/kg",
    "recorded_number": 23
  },
  {
    "smiles_string": "N=C(N)NC(=O)[C@H]1C[C@@H]1c1cc(Cl)ccc1Cl",
    "unit_abbrev": "L/kg",
    "recorded_number": 21
  }
]

Moving on to the next compound.
input: Find the recorded Vd belonging to CC1(C)[C@H](C(=O)N=C(N)N)[C@H]1c1cccc2c1CCO2 and report it.
output: 8.6

###

Target: Sodium/hydrogen exchanger 1 (Homo sapiens, UniProt P19634)
Sequence (P19634 whole entry): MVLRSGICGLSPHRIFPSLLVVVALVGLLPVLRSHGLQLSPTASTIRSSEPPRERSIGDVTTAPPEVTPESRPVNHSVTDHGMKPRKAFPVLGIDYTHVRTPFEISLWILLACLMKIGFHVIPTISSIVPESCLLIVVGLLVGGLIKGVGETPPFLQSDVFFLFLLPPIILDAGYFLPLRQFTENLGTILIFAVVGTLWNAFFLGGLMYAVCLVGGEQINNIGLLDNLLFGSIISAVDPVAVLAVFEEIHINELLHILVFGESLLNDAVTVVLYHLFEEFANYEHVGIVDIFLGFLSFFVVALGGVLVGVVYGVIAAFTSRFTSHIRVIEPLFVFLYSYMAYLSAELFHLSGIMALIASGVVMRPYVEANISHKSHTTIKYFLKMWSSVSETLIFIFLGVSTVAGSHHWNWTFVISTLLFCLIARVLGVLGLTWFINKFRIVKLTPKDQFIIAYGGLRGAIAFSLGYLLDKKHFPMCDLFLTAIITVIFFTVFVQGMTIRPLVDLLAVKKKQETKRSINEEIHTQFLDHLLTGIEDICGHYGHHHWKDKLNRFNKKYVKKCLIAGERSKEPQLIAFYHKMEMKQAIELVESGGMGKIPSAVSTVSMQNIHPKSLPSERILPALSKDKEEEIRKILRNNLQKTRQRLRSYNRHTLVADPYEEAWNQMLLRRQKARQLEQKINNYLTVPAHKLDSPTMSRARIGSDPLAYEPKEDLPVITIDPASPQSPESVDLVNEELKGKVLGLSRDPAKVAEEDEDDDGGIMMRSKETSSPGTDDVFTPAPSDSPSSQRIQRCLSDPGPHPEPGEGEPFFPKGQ
Experiment: Screened in AP1 cells expressing human NHE-1 for sodium hydrogen exchange activity
quantity_kind: IC50

Worked set:
[
  {
    "compound": "N=C(N)NC(=O)[C@H]1C[C@@H]1c1ccc(F)c(Br)c1",
    "IC50": "90 nM"
  },
  {
    "compound": "N=C(N)NC(=O)[C@H]1C[C@@H]1c1ccc(F)cc1",
    "IC50": "1600 nM"
  },
  {
    "compound": "Cc1cc(-n2cccc2)c(S(C)(=O)=O)cc1C(=O)NC(=N)N [ENIPORIDE]",
    "IC50": "380 nM"
  },
  {
    "compound": "COc1cccc([C@H]2C[C@@H]2C(=O)NC(=N)N)c1",
    "IC50": "540 nM"
  },
  {
    "compound": "N=C(N)NC(=O)[C@H]1C[C@@H]1c1ccc([N+](=O)[O-])cc1",
    "IC50": "> 30000 nM"
  },
  {
    "compound": "N=C(N)NC(=O)[C@H]1C[C@@H]1c1ccccc1Cl",
    "IC50": "980 nM"
  }
]

input: Find the recorded IC50 belonging to CC1(C)[C@H](C(=O)N=C(N)N)[C@H]1c1ccc(F)c(Br)c1 and report it.
output: 3 nM

input: Find the recorded IC50 belonging to N=C(N)NC(=O)[C@H]1C[C@@H]1c1cccc2c1CCO2 and report it.
output: 120 nM

input: Find the recorded IC50 belonging to CC1(C)[C@H](C(=O)N=C(N)N)[C@H]1c1ccccc1 and report it.
output: 69 nM

input: Find the recorded IC50 belonging to CC(C)c1cc([C@@H]2[C@@H](C(=O)N=C(N)N)C2(C)C)ccc1F and report it.
output: 17 nM

input: Find the recorded IC50 belonging to N=C(N)NC(=O)[C@H]1C[C@@H]1c1cccc([N+](=O)[O-])c1 and report it.
output: 1600 nM
